The values you see were collected from patent US7868022B2.

target: human BACE-1 (Homo sapiens); assay: In Vitro BACE Assay run by CEREP (Example 19); format: biochemical; details: pH 4.5, 1.0 μM compound, recombinant enzyme
Sequence (P56817 46-501): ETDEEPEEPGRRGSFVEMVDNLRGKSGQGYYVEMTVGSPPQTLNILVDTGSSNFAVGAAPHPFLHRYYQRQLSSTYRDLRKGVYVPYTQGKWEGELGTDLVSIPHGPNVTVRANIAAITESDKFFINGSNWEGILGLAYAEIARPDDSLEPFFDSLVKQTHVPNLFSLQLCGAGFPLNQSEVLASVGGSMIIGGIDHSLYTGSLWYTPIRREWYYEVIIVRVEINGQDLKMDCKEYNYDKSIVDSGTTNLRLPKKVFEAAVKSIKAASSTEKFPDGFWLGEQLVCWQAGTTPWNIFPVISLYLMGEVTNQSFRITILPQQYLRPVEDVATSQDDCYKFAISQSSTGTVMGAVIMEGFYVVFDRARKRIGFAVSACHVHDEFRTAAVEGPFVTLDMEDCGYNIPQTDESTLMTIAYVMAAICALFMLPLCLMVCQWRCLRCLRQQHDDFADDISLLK
observation_type: inhibition at 1 µM (%)

Example compounds with recorded inhibition at 1 µM:
compound="Nc1nc2ccc(Oc3ccccc3)cc2cc1C(Cc1cn(C23CC4CC(CC(C4)C2)C3)nn1)C1CCOCC1 (stereo not shown)" reported=46
compound="Nc1nc2ccc(Oc3ccccc3)cc2cc1C(CCC(=O)N(CCO)C1CCCCC1)C1CCOCC1 (stereo not shown)" reported=87
compound=Cn1ccnc1CN(CCC(C)(C)C)C(=O)CC[C@H](c1cc2cc(Oc3ccccc3)ccc2nc1N)C1CCOCC1 reported=100
compound=CC(C)(C)CCNC(=O)CC[C@H](c1cc2cc(Oc3ccccc3)ccc2nc1N)C1CCOCC1 reported=89
compound="CC(C)(C)c1cc(CC(c2cc3cc(Oc4ccccc4)ccc3nc2N)C2CCOCC2)on1 (stereo not shown)" reported=53
compound="CC(C)(C)n1cc(CC(c2cc3cc(Oc4ccccc4)ccc3nc2N)C2CCOCC2)nn1 (stereo not shown)" reported=12
compound=CC(C)(C)CCNC(=O)CCC[C@H](c1cc2cc(Oc3ccccc3)ccc2nc1N)C1CCOCC1 reported=85
compound="Nc1nc2ccc(Oc3ccccc3)cc2cc1C(CCc1cn(C23CC4CC(CC(C4)C2)C3)nn1)C1CCOCC1 (stereo not shown)" reported=67
compound=CN(CC1CCCCC1)C(=O)CC[C@H](c1cc2cc(Oc3ccccc3)ccc2nc1N)C1CCOCC1 reported=96
compound=Nc1nc2ccc(Oc3ccccc3)cc2cc1[C@@H](CCC(=O)NCC1CC1)C1CCOCC1 reported=75

[a] CC(C)(C)Cc1cc(CC(c2cc3cc(Oc4ccccc4)ccc3nc2N)C2CCOCC2)on1 (stereo not shown)
[b] CN(C(=O)CCCC(c1cc2cc(Oc3ccccc3)ccc2nc1N)C1CCCCC1)C1CCCCC1 (stereo not shown)
Exercise: Between the entries labeled a and b , whose measured inhibition at 1 µM is lower? Write the label of whichever entry you select.
Solution: b
